- assay_target: T1, CTNI quality control recombinant protein (PK2-CTNI-1, 170120, produced by the applicant) (human, UniProt P19429 2-210, limits assumed)
- T1 construct: also called cardiac troponin I
- T1 sequence (P19429 2-210 limits assumed): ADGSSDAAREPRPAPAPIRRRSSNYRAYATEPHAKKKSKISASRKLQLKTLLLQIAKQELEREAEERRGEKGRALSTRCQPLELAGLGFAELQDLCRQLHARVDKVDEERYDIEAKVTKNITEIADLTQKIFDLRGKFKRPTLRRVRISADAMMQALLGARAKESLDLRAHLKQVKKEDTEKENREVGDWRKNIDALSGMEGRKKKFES
- test_summary: AMC sensor kinetics, antibody captured, cTnI analyte
property_label: koff (s⁻¹)
# unit: s⁻¹ | format: bare number

# binder, koff / s⁻¹
rows = [
    ("Mutation 1-40 (antibody, V domains shown, built as for Mutation 1) VH: EVQLQQSGAELVKPGASVKLSCTASGFNLKDYYMHWMKQRTEQGLDWIGRIDPEDGETKYAPEFQGKATITADTSSNTAYLQLSTLTSEDTAVYYCARYYSSYIPFVYWGQGTLVTASA VL: DVVMTQTPLSLSVSLGDQASISCRSSQSLLYSNRHTYLHWYLQKPGQSPKLLIFQISNRFSGVPDRFSGSGSGTDFTLKINRVEAEDLGVYFCSQSTHLPFTFGSGTKLEIKR", 0.000164),
    ("Mutation 1-16 (antibody, V domains shown, built as for Mutation 1) VH: EVQLQQSGAELVKPGASVKLSCTASGFNLKDYFMHWMKQRTEQGLDWIGRIDPEDAETRYAPEFQGKATITADTSSNTAYLQLSTLTSEDTAVYYCARYYSSYIPFVYWGQGTLVTASA VL: DVVMTQTPLSLSVSLGDQASISCRSSQSLLYSNRHTYLHWYLQKPGQSPKLLIFQISNRFSGVPDRFSGSGSGTDFTLKINRVEAEDLGVYFCSQSTHLPYTFGSGTKLEIKR", 0.000101),
    ("Mutation 1-11 (antibody, V domains shown, built as for Mutation 1) VH: EVQLQQSGAELVKPGASVKLSCTASGFNIKDYYMHWMKQRTEQGLDWIGRIDPEDAETKYAPEFQGKATITADTSSNTAYLQLSTLTSEDTAVYYCARYYSSYVPFVYWGQGTLVTASA VL: DVVMTQTPLSLSVSLGDQASISCRSSQSILYSNRHTYLHWYLQKPGQSPKLLIFQVSNRFSGVPDRFSGSGSGTDFTLKINRVEAEDLGVYFCSQSTHIPFTFGSGTKLEIKR", 0.000443),
    ("Mutation 1-35 (antibody, V domains shown, built as for Mutation 1) VH: EVQLQQSGAELVKPGASVKLSCTASGFNIKDYYMHWMKQRTEQGLDWIGRIDPEDAETRYAPEFQGKATITADTSSNTAYLQLSTLTSEDTAVYYCARYYSSYLPFVYWGQGTLVTASA VL: DVVMTQTPLSLSVSLGDQASISCRSSQSIIYSNRHTYLHWYLQKPGQSPKLLIFQLSNRFSGVPDRFSGSGSGTDFTLKINRVEAEDLGVYFCSQSTHLPYTFGSGTKLEIKR", 0.000276),
]

// moving on: another record for koff
Q. Field request: koff | item: Mutation 1-7 (antibody, V domains shown, built as for Mutation 1) VH: EVQLQQSGAELVKPGASVKLSCTASGFNIKDYYMHWMKQRTEQGLDWIGRIDPEDAETRYAPEFQGKATITADTSSNTAYLQLSTLTSEDTAVYYCARYYSSYIPFVYWGQGTLVTASA VL: DVVMTQTPLSLSVSLGDQASISCRSSQSLIYSNRHTYLHWYLQKPGQSPKLLIFQISNRFSGVPDRFSGSGSGTDFTLKINRVEAEDLGVYFCSQSTHLPYTFGSGTKLEIKR
A. 0.00056
